Answer each item with its documented TGI.
- System: MDA-MB-468 breast
- PROTOCOL TEXT: NCI tumour cell line growth inhibition, 48 h

Reported TGI for NCCC(O)(P(=O)(O)O)P(=O)(O)O : what is it?
> 100 µM

Reported TGI for COc1ccc(-c2nc(-c3nc4ccc(OC)cc4[nH]3)cc3c2[nH]c2ccccc23)cc1 : what is it?
> 100 µM

Reported TGI for Cc1[nH]c(=O)[nH]c(=O)c1CO : what is it?
> 100 µM
